Target: mouse HER2 (23-653) (Mus musculus, UniProt P70424)
Assay: TR-FRET competition assay for peptide potency, mouse HER2
Type: binding
Set-up: mouse HER2 (23-653) using a Cy5 labeled peptide as a probe; made in house; host or cells: mammalian cells
Details: TR-FRET competition with Cy5 labeled peptide probe, 0.1 nM mouse HER2, 24 h incubation; read-out: moHER2 TR-FRET IC50
Description: Both proteins containing a His-, Avi-tag and biotin in Nterminus, were expressed in mammalian cells and produced in house. […] Standard assay conditions consist of 20 uL total volume in white 384-well plates (Greiner), in 10 mM HEPES buffer containing 150 mM NaCl, 3 mM EDTA, 0.05% Tween20 and 1% final DMSO. […] The ratiometric FRET assay readout is calculated from the ratio of the raw data of the two distinct fluorescence signals measured in time resolved mode (fluorescence 665 nm/fluorescence 620 nm). […]
Positions of bridges follow the written chain, without caps; N, C: chain ends. Non-standard residues stand in square brackets, D forms with d. Residues, ends and D or L forms follow the SMILES beside them. Trp(5-OH) = N[C@@H](Cc1c[nH]c2ccc(O)cc12)C(=O)O; NMePhe(4-F) = CN[C@@H](Cc1ccc(F)cc1)C(=O)O; NMehPhe = CN[C@@H](CCc1ccccc1)C(=O)O; Aad = N[C@@H](CCCC(=O)O)C(=O)O; Gly(cPr) = N[C@H](C(=O)O)C1CC1; NMeK = CN[C@@H](CCCCN)C(=O)O; NMeDap = CN[C@@H](CN)C(=O)O
Here the recorded pIC50 is given for each entry.
When answering, recall that pIC50 equals minus log10 of the concentration in mol/L, and write that number alone.

molecule | pIC50
CC(=O)NCCCC[C@H]1C(=O)N[C@@H](Cc2c[nH]c3ccc(O)cc23)C(=O)N[C@@H](Cc2c[nH]c3ccccc23)C(=O)N[C@@H](C2CC2)C(=O)N(C)[C@H](C(=O)N(C)[C@@H](Cc2ccc(F)cc2)C(=O)N[C@@H](CCCCNC(=O)c2ccc(F)nc2)C(N)=O)CNC(=O)CCC[C@H](NC(C)=O)C(=O)N[C@@H](Cc2ccc(O)cc2)C(=O)N[C@@H](CO)C(=O)N(C)[C@@H](CCc2ccccc2)C(=O)N1C [Example F1] | 9.70

q: Which pIC50 is reported for this molecule? CC(=O)NCCCC[C@H]1C(=O)N[C@@H](Cc2c[nH]c3ccc(O)cc23)C(=O)N[C@@H](Cc2c[nH]c3ccccc23)C(=O)N[C@@H](C2CC2)C(=O)N(C)[C@H](C(=O)N(C)[C@@H](Cc2ccc(F)cc2)C(N)=O)CNC(=O)CCC[C@H](NC(C)=O)C(=O)N[C@@H](Cc2ccc(O)cc2)C(=O)N[C@@H](CO)C(=O)N(C)[C@@H](CCc2ccccc2)C(=O)N1C [Example A5] (Ac-[Aad]YS[NMehPhe][NMeK](Ac)[Trp(5-OH)]W[Gly(cPr)][NMeDap][NMePhe(4-F)]-NH2; lactam 1-9)
a: 9.10

These data points were gathered from patent US20250332300A1.
